tested on: NSO; assay: Growth inhibition of MCSF-independent mouse NSO cells
Attribute measured: pIC50
Scale explanation: pIC50 corresponds to minus log10 of a concentration expressed in moles per litre.

Form field pIC50 for item "NC(=O)c1cnc2cc(-c3ccccc3)ccc2c1Nc1ccccc1" on NSO: 4.49

***
Form field pIC50 for item "CN(C)c1ccc(-c2ccc3c(Nc4ccccc4)c(C(N)=O)cnc3c2)cc1" on NSO: 4.49

Form field pIC50 for item "NC(=O)c1cnc2cc(-c3ccncc3)ccc2c1Nc1ccccc1" on NSO: 4.92

Form field pIC50 for item "CS(=O)(=O)Nc1ccc(-c2ccc3c(Nc4ccccc4)c(C(N)=O)cnc3c2)cc1" on NSO: 5.00

Form field pIC50 for item "Cc1ccc(Nc2c(C(N)=O)cnc3cc(-c4ccc(S(C)(=O)=O)cc4)ccc23)cc1C" on NSO: 5.00

###

system: NSO; assay: Growth inhibition of MCSF-independent mouse NSO cells
Attribute measured: IC50

Use the examples below as a reference point.
IC50 reported for this compound "CC(=O)Nc1ccc(-c2ccc3c(Nc4ccccc4)c(C(N)=O)cnc3c2)cc1" : 4 µM

IC50 reported for this compound "CS(=O)(=O)c1ccc(-c2ccc3c(Nc4ccc(F)c(F)c4)c(C(N)=O)cnc3c2)cc1" : > 20 µM

IC50 reported for this compound "CSc1ccc(Nc2c(C(N)=O)cnc3cc(-c4ccncc4)ccc23)cc1" : > 50 µM

IC50 reported for this compound "NC(=O)c1cnc2cc(-c3ccc(C(F)(F)F)cc3)ccc2c1Nc1ccccc1" : 20 µM

IC50 reported for this compound "NC(=O)c1cnc2cc(-c3ccncc3)ccc2c1Nc1ccc(F)cc1" : > 40 µM

From here, focus on the item given below.
IC50 reported for this compound "NC(=O)c1cnc2cc(-c3ccc(N)cc3)ccc2c1Nc1ccccc1" : 10 µM

###

tested on: NSO; experiment: Growth inhibition of MCSF-independent mouse NSO cells
pIC50: −log10 of the molar value.
// reported pIC50 per item

Use the examples below as a reference point.
pIC50 reported for this compound "Cc1ccc(Nc2c(C(N)=O)cnc3cc(-c4ccc(S(C)(=O)=O)cc4)ccc23)cc1F" : < 4.70

pIC50 reported for this compound "NC(=O)c1cnc2cc(-c3ccncc3)ccc2c1Nc1ccc(OC(F)(F)F)c(Cl)c1" : < 4.49

pIC50 reported for this compound "CC(C)Oc1ccc(Nc2c(C(N)=O)cnc3cc(-c4ccncc4)ccc23)cc1" : < 4.30

***
pIC50 reported for this compound "NC(=O)c1cnc2cc(-c3ccncc3)ccc2c1Nc1cccc2[nH]ncc12" : < 4.49

pIC50 reported for this compound "NC(=O)c1cnc2cc(-c3ccc(C(=O)C4CCCC4)cc3)ccc2c1Nc1ccccc1" : < 4.70

###

assay: Growth inhibition of MCSF expressing mouse M-NSF60 cells
pIC50: −log10 of the molar value.
Attribute measured: pIC50

pIC50 reported for this compound "NC(=O)c1cnc2cc(-c3ccncc3)ccc2c1Nc1ccon1" : < 4.30

pIC50 reported for this compound "NC(=O)c1cnc2cc(-c3ccncc3)ccc2c1Nc1ccc(OC(F)(F)F)c(Cl)c1" : < 4.70

From here, focus on the item given below.
pIC50 reported for this compound "NC(=O)c1cnc2cc(-c3ccc(C(=O)C4CCCC4)cc3)ccc2c1Nc1ccccc1" : < 4.70

###

tested on: NSO; experiment: Growth inhibition of MCSF-independent mouse NSO cells
Attribute measured: IC50 (µM)
Kindly answer with a numeric value in µM, unit omitted.

IC50 reported for this compound "COc1ccc(Nc2c(C(N)=O)cnc3cc(-c4ccc(S(C)(=O)=O)cc4)ccc23)cc1Cl" : 13

IC50 reported for this compound "NC(=O)c1cnc2cc(-c3ccc(C(=O)C4CC4)cc3)ccc2c1Nc1ccccc1" : 10

IC50 reported for this compound "COc1ccc(Nc2c(C(N)=O)cnc3cc(-c4ccc(S(C)(=O)=O)cc4)ccc23)cc1F" : 20

***
IC50 reported for this compound "N#Cc1cccc(-c2ccc3c(Nc4ccccc4)c(C(N)=O)cnc3c2)c1" : 10

IC50 reported for this compound "NC(=O)c1cnc2cc(-c3ccc(C(=O)N4CCOCC4)cc3)ccc2c1Nc1ccccc1" : 8

IC50 reported for this compound "CC(C)Oc1ccc(Nc2c(C(N)=O)cnc3cc(-c4ccncc4)ccc23)cc1F" : 13

IC50 reported for this compound "COc1ccc(Nc2c(C(N)=O)cnc3cc(-c4ccncc4)ccc23)cc1" : 16

IC50 reported for this compound "CN(C)c1ccc(Nc2c(C(N)=O)cnc3cc(-c4ccncc4)ccc23)cc1" : 10

IC50 reported for this compound "CS(=O)(=O)c1ccc(-c2ccc3c(Nc4ccc(F)cc4)c(C(N)=O)cnc3c2)cc1" : 10

IC50 reported for this compound "N#Cc1ccc(-c2ccc3c(Nc4ccccc4)c(C(N)=O)cnc3c2)cc1" : 32

IC50 reported for this compound "CCS(=O)(=O)c1ccc(-c2ccc3c(Nc4ccccc4)c(C(N)=O)cnc3c2)cc1" : 8

IC50 reported for this compound "NC(=O)c1cnc2cc(-c3ccc(Br)cc3)ccc2c1Nc1ccccc1" : 50

IC50 reported for this compound "Cc1ccc(-c2ccc3c(Nc4ccccc4)c(C(N)=O)cnc3c2)cc1" : 25
